These data points were gathered from patent US20100120730A1.

# test_target: human PDE5 (Homo sapiens)
# Construct: from tissue; host or cells: human platelets from fresh donor blood (10,000 g supernatant of sonified platelets)
# method_summary: Inhibition of PDE5 activity (modified SPA test, human platelet lysate)
# Type: biochemical
# conditions_used: PDE5-containing human platelet lysate, 0.5 μM cGMP substrate, 37° C.
pIC50: −log10 of the molar value.
experimental_endpoint: pIC50

molecule=COc1ccc(Cc2nc3c(c4c2[nH]c2ccccc24)[C@@H](O)CC(C)(C)C3)cc1F value=9.10
molecule="COc1ccc(Cc2nc3c(c4c2[nH]c2ccccc24)C(O)CC(C)(C)C3)cc1F (centres unmarked)" value=8.80
molecule=CC1(C)CC(=O)c2c(nc(Cc3cccc(F)c3)c3[nH]c4ccccc4c23)C1 value=8.31

(A) CC1(C)CC(=O)c2c(nc(Cc3ccc(O)c(F)c3)c3[nH]c4ccccc4c23)C1
(B) COc1ccc(Cc2nc3c(c4c2[nH]c2ccccc24)C(=O)CC(C)C3)cc1 (centres unmarked)
Inquiry: Quick check, higher pIC50 between A and B ? Return value: the label identifying the chosen record.
Reply text: A
(A: 9.20, B: 8.50)

(P) O=C1CCCc2nc(Cc3cccc([N+](=O)[O-])c3)c3[nH]c4ccccc4c3c21
(Q) COc1ccc(Cc2c3[nH]c4ccccc4c3c3c([n+]2[O-])CC(C)(C)CC3=O)cc1
Inquiry: Quick check, higher pIC50 between P and Q ? Return value: the label identifying the chosen record.
Reply text: Q
(Q: 7.81, P: 6.54)
